- System name: T1, CRBN, Q96SW2;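 also: pooled lentiviral library of zinc finger degron-EGFP fusions in mCherry-positive Jurkat cells, FACS-sorted after compound exposure, with degron abundance counted by next-generation sequencing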
- T1 chain: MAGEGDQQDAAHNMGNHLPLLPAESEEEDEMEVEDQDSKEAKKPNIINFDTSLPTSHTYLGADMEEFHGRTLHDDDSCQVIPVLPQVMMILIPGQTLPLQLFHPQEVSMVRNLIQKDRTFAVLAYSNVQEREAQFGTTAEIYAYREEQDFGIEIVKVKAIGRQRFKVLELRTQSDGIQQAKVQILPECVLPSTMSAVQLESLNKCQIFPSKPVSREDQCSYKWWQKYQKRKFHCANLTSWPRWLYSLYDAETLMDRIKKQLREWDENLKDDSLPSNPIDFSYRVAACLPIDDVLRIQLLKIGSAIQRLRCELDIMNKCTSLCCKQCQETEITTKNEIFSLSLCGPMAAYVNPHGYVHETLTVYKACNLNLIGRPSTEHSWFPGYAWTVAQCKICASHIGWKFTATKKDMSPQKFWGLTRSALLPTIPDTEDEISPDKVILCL
- Experimental protocol: log2 fold change of degron read counts, EGFP-low vs EGFP+ sorted cells (limma voom), compound-induced degradation; higher = more compound-induced degradation of the degron-EGFP fusion; degrons are variants of IKZF1/3 zinc finger 2; compound dose not given here
- Test settings: Jurkat; 18 h; compound: thalidomide
Whole data set: some 8,300 sequences, median “log2 fold change of degron read counts, EGFP-low vs EGFP+ sorted cells (limma voom), compound-induced degradation” near -1.1, cut for the highest 2% near 3.2. The entries come from a sample that favours the highest values as a whole.
Could you label it rule met if measured log2 fold change of degron read counts is 2 or higher, and rule not met otherwise?

Consider the following illustrative entries.
* FVCEQCGAIFTQKGNLLRHIKL [46F_47V_49E_50Q_52G_53A_54I_55F_67L_, Q9UKT9] | rule not met
* FFCEICGHRFTQKGNLLRHIKL [46F_47F_49E_50I_52G_53H_54R_55F_67L_, Q9UKT9] | rule not met
* LICEICGFTCTQKGNLLRHIKL [46L_47I_49E_50I_52G_53F_54T_55C_67L_, Q9UKT9] | rule met
* FRCEICGRSFTQKGNLLRHIKL [46F_47R_49E_50I_52G_53R_54S_55F_67L_, Q9UKT9] | rule not met

(Q) Item FWCPICGAQFTQKGNLLRHIKL [46F_47W_49P_50I_52G_53A_54Q_55F_67L_, Q9UKT9] with log2 fold change of degron read counts of 2 or above?
(A) rule not met

(Q) Threshold query (log2 fold change of degron read counts >= 2) on FYCEICGRMFTQKGNLLRHIKL [46F_47Y_49E_50I_52G_53R_54M_55F_67L_, Q9UKT9]
(A) rule not met
